# TEST_PROTOCOL: inhibitors of the yeast RAM network, primary screen, dse1pr::URA3 reporter, 5-FOA selection (AID 868);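 also: 0% = DMSO-only wells with no growth and 100% = 10 µM 1-NA-PP1 full growth; inhibition rescues growth on 5-FOA so higher OD means more RAM inhibition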
# RUN_PARAMETERS: S. cerevisiae dse1pr::URA3 reporter, 5-FOA growth OD615, 2 d; at 50 µM; active compounds read high; analog-sensitive cbk1-as2 kinase mutant strain
Among all 190,000 compounds or so, about 3,500 (1.8%) were called active. Many of the other results were omitted from the sample, so actives are more common in it than they were.
PROPERTY: inhibition (%)
Give the value, in units of %, as a plain number.

Read the entry CCOC(=O)Cc1csc(SCC(=O)NC(C)C23CC4CC(CC(C4)C2)C3)n1 (configuration not stated) and write its reported inhibition. 0.91

Read the entry Cc1cc(C)c(NC(=S)N2CCCC2C(=O)O)c(C)c1 (configuration not stated) and write its reported inhibition. -0.25

Read the entry Cc1cccc(Cn2c(SCCO)nc3c2c(=O)n(C)c(=O)n3C)c1 and write its reported inhibition. 0.88

Read the entry O=C(O)c1ccc(NC(=O)c2cn(-c3ccccc3)nc2-c2ccc(Cl)cc2)cc1 and write its reported inhibition. 6.63

Read the entry COC(=O)Cn1c(=NC(=O)c2cc(OC)c(OC)c(OC)c2)sc2cc(OC)ccc21 and write its reported inhibition. 5.03

Read the entry O=C(CSc1nc(O)c(Cc2ccccc2)c(=O)[nH]1)Nc1nc2c(s1)CCCC2 and write its reported inhibition. 2.38

Read the entry CCOC(=O)c1c(C)nc2c(c1C)c(=O)oc1ccccc12 and write its reported inhibition. 18.6

Read the entry O=C(COc1ccccc1)Nc1ccc(N2CCN(C(=O)c3cccs3)CC2)cc1 and write its reported inhibition. 6.82

Read the entry CCn1c(COc2ccc(OC)cc2)nnc1SCC(=O)Nc1cc(OC)ccc1OC and write its reported inhibition. 0.11

Read the entry Cc1ccc(-c2nn(-c3ccccc3)cc2/C=C/C(=O)Nc2cccc(S(N)(=O)=O)c2)cc1 and write its reported inhibition. 4.87

Read the entry COc1ccc(/C=C2/C(=O)OCc3cc(OC)c(OC)cc32)c(OC)c1 and write its reported inhibition. 7.31

Read the entry CC(C)Cc1nn2c(=O)cc(O)nc2s1 and write its reported inhibition. 1.5

Read the entry CC1CCN(C(=S)c2ccc(-c3ccc(Cl)cc3Cl)o2)CC1 and write its reported inhibition. 15.1

Read the entry COCCCNC(=O)/C=C/c1ccc(OCc2c(F)cccc2Cl)cc1 and write its reported inhibition. 0.89

Read the entry O=C(NCCc1ccc(F)cc1)c1n[nH]c2ccccc12 and write its reported inhibition. -0.97

Read the entry CCC(C)(C)n1nnnc1C(c1cccs1)N1CCN(Cc2ccccc2)CC1 (configuration not stated) and write its reported inhibition. 0.11

Read the entry Cc1ccn(CC(=O)N2N=C(C(F)F)CC2(O)C(F)F)n1 (configuration not stated) and write its reported inhibition. 0.78

Read the entry CCOc1ccc(CN(Cc2ccco2)C(c2cccs2)c2nnnn2C(C)(C)C)cc1 (configuration not stated) and write its reported inhibition. 15.1

Read the entry Cc1ccc(NC(=O)Cn2cccc2C2=NC(c3ccccc3)CO2)c(C)c1 (configuration not stated) and write its reported inhibition. 0.92

Read the entry CCOC(=O)N1CCN(C(=O)c2cc3c(ccc4ccccc43)oc2=O)CC1 and write its reported inhibition. 4.45

Read the entry COCC(C)NCc1cc(Br)ccc1OC (configuration not stated) and write its reported inhibition. 1.56

Read the entry CC(C)(C)n1nnnc1C(c1cccs1)N(Cc1cccnc1)CC1CCCO1 (configuration not stated) and write its reported inhibition. 4.18

Data provenance: PubChem BioAssay AID868
